- system_under_test: T1, SSR56 (Homo sapiens, N-terminal cysteine on peptide)
- T1 chain: MQTSKL
- measurement_description: fluorescence polarization competition
pKi: −log10 of the molar value.
readout_kind: pKi

Some solved entries appear below for comparison.
- binder: "NHERF1 PDZ1 (protein) LPRLCCLEKGPNGYGFHLHGEKGKLGQYIRLVEPGSPAEKAGLLAGDRLVEVNGENVEKETHQQVVSRIRAALNAVRLLVVDPETDE"
  meas_value: 4.71
- binder: "NHERF2 PDZ1 (protein) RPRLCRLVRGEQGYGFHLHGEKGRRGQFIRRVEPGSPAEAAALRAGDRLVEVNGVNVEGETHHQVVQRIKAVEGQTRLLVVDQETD"
  meas_value: 4.50

P: NHERF2 PDZ2 (protein) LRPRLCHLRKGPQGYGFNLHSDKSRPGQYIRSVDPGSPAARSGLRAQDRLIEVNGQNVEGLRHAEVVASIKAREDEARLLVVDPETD
Q: NHERF1 PDZ2 (protein) RPRLCTMKKGPSGYGFNLHSDKSKPGQFIRSVDPDSPAEASGLRAQDRIVEVNGVCMEGKQHGDVVSAIRAGGDETKLLVVDRETDE
Query: Pick one: P or Q . Which one has the lower reported pKi? API: response body contains the label of the selected item.
Reply: Q
